Each recorded value in this set is attributed to patent US20160297884A1.

Biological target: T1, Human BCMA (human, UniProt Q02223 1-54, limits assumed)
T1 construct: Soluble analyte in SPR; construct not described; also called huBCMA; B-cell maturation antigen
T1 sequence (looked up): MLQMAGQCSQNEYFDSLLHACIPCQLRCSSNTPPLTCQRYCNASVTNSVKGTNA
Experiment: SPR, IgG immobilised, 37 C
Method: All experiments were performed on a Bio-Rad Proteon XPR36 surface Plasmon resonance biosensor (Bio-Rad, Hercules, Calif.). […] The analysis temperature for the immobilization was 25° C. and the running buffer was HBS-T+(10 mM HEPES, 150 mM NaCl, 0.05% Tween-20, pH 7.4). […] The analysis temperature for the BCMA binding analysis was 37° C. or 25° C. in a running buffer of HBS-T+, supplemented with 1 mg/mL BSA. […] Immediately after the 50 nM BCMA injection, dissociation was monitored for 2 hours. […]
Reported values of kon for individual entries
Numbers only here, please. The scale is M⁻¹ s⁻¹.

L3.PY/L1.FF/H2.YQ (antibody, V domains shown, IgG) VH: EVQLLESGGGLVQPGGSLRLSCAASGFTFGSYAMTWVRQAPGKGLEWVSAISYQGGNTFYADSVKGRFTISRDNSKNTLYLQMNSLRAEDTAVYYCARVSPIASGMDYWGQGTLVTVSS VL: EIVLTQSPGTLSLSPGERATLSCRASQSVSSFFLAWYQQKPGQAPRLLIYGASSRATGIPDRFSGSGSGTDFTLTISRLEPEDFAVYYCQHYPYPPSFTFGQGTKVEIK    3.32e+06
L3.PY/L1.PS/H3.TAQ (antibody, V domains shown, IgG) VH: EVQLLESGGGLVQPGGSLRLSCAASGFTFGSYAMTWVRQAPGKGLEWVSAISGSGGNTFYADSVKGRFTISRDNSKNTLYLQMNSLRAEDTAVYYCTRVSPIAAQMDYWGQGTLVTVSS VL: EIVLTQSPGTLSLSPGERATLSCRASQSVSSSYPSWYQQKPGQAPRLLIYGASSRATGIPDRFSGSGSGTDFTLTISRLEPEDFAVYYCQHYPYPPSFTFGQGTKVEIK    3.25e+06
L3.PY/H2.LT (antibody, V domains shown, IgG) VH: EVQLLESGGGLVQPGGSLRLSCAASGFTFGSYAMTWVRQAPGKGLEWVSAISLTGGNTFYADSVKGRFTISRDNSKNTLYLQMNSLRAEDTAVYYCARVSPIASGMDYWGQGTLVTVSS VL: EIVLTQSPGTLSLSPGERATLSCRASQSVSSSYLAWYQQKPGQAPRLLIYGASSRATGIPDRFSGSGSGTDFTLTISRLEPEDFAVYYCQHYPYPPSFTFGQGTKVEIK    2.4e+06
L3.PY/L3.KY/H2.QL (antibody, V domains shown, IgG) VH: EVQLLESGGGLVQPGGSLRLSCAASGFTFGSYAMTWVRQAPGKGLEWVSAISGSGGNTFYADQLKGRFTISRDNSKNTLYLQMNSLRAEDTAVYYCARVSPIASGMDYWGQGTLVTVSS VL: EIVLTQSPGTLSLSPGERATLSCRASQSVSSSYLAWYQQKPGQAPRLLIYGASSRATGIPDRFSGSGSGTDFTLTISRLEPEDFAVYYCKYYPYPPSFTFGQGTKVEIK    3.65e+06
L3.PY/L1.AH/H2.QR (antibody, V domains shown, IgG) VH: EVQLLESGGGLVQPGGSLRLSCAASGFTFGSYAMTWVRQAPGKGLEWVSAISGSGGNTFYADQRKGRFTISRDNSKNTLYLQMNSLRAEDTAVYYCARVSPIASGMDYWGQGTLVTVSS VL: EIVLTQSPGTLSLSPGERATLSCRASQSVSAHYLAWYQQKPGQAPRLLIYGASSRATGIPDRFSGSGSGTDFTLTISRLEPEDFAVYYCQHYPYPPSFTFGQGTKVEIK    3.13e+06
L3.PY/L1.AH/H2.HA (antibody, V domains shown, IgG) VH: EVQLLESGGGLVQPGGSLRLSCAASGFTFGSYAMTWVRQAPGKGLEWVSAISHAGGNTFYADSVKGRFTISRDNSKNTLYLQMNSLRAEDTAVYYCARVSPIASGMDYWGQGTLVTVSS VL: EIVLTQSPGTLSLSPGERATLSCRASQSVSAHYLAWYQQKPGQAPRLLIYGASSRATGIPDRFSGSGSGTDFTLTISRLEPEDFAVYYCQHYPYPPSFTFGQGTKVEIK    3.33e+06
L3.PY/L1.FF/H3.YA (antibody, V domains shown, IgG) VH: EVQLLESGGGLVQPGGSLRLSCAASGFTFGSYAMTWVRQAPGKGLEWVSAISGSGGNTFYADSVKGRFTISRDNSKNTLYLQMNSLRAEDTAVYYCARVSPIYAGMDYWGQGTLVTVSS VL: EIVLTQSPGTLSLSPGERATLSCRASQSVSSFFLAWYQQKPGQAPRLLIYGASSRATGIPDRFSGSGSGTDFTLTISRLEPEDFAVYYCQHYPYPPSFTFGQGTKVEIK    3.5e+06
L3.PY/L1.AH/P6E01 (antibody, V domains shown, IgG) VH: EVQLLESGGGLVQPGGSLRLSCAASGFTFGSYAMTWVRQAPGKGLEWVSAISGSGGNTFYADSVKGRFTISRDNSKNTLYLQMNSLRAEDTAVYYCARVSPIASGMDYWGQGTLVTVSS VL: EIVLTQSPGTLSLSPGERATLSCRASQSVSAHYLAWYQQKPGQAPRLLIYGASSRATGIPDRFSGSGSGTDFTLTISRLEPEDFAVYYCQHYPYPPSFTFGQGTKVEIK    2.55e+06

Here is the next item to consider.
The binder listed as L3.PY/L3.KY/H2.DY (antibody, V domains shown, IgG) VH: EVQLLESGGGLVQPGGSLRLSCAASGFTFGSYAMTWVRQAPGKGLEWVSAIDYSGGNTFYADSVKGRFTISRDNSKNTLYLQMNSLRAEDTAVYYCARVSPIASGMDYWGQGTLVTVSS VL: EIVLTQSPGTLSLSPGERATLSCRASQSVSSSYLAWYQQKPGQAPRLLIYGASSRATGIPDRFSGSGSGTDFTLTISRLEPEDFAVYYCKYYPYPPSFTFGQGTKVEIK has a reported kon of 3.19e+06
